peptide exchange yield values for the binders below.
- measurementTarget: T1, HLA-A*01:01 (human)
- T1 construct: MHC class I monomer first loaded with a UV-sensitive peptide (not identified) that is cleaved by UV irradiation and exchanged for the tested peptide; captured on streptavidin plates, detected with anti-β2m; also called peptide-receptive MHC molecules
- assay: UV-ligand exchange, anti-b2m ELISA

In: Look up peptide exchange yield: ELAAGQVVY
Out: 10 to 20%

In: Likewise for YMSPDIALLY ?
Out: > 75%

In: Likewise for SWSAGENDSYS ?
Out: 10 to 20%

In: Likewise for KSFETTVRY ?
Out: 20 to 50%

In: Likewise for YTAHVGYSMY ?
Out: > 75%

---
In: Look up peptide exchange yield: KTLQKPVLPLY
Out: 20 to 50%

In: Likewise for RSDPGGGGLAYAAY ?
Out: > 75%

In: Likewise for DIPDYLLQY ?
Out: 50 to 75%

In: Likewise for QVPLDCVLY ?
Out: 20 to 50%

In: Likewise for AATVKSDIY ?
Out: 20 to 50%
